Source of measurements: patent US20210087281A1

- Assayed System: native human MET on living cells (human, UniProt P08581 25-1390)
- Sequence (P08581 25-1390): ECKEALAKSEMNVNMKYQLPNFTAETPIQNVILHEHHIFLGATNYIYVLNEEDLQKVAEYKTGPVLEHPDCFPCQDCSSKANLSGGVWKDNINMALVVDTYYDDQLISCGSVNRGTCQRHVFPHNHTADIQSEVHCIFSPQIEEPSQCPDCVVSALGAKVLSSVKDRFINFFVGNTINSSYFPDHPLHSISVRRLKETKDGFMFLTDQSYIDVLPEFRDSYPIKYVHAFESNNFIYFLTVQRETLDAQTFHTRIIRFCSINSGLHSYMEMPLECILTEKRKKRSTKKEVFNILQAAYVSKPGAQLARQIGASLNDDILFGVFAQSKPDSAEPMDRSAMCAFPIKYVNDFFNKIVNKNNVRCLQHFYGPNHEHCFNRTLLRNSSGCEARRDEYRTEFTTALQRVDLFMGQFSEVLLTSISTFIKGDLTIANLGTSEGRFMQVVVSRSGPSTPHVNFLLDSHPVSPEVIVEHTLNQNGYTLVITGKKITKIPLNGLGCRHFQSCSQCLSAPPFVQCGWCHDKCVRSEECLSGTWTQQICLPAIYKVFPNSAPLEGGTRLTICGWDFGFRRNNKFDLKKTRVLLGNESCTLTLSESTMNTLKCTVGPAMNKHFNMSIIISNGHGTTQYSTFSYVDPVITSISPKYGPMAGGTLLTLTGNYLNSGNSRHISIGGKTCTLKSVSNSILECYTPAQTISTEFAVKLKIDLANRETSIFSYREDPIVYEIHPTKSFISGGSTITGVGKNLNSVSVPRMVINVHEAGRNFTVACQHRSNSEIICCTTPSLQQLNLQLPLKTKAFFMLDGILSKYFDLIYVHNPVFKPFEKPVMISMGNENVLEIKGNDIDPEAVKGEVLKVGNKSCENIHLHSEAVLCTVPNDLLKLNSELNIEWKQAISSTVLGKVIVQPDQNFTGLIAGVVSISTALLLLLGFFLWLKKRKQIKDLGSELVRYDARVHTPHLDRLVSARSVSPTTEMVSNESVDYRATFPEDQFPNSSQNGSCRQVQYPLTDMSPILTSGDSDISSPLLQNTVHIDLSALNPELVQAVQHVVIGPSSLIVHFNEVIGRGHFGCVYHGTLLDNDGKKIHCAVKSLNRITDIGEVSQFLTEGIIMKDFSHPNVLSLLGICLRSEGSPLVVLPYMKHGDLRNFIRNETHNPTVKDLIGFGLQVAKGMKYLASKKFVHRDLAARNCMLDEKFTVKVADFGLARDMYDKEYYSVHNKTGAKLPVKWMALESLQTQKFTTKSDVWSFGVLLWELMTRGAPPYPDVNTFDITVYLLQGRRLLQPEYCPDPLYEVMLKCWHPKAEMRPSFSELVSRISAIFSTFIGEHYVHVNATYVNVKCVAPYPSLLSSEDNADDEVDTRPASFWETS
- Run Description: cell-based or functional assay
Quantity: scatter score 0-4, HPAF-II, 0.111 nM (score)
Numbers only, in score.

Reference set (4 entries):
71A3 chimeric llama-human IgG1 mAb (antibody, V domains shown, llama VH on human IgG1 CH1-CH2-CH3, llama VL on human lambda CL) VH: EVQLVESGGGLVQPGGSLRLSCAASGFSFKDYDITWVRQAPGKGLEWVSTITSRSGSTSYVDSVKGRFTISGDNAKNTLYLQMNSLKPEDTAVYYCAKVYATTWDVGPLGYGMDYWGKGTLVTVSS VL: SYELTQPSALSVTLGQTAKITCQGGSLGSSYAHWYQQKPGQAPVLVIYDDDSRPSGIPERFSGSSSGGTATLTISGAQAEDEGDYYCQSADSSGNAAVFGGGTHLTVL ... 3
74C8 chimeric llama-human IgG1 mAb (antibody, V domains shown, llama VH on human IgG1 CH1-CH2-CH3, llama VL on human lambda CL) VH: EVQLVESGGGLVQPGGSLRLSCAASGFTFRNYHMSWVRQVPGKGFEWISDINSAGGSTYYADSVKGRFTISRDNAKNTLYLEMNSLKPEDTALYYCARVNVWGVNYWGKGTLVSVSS VL: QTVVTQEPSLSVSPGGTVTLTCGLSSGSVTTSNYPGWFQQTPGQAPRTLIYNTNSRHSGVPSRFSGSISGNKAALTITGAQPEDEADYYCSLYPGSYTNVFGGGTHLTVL ... 2
76H10 chimeric llama-human IgG1 mAb (antibody, V domains shown, llama VH on human IgG1 CH1-CH2-CH3, llama VL on human lambda CL) VH: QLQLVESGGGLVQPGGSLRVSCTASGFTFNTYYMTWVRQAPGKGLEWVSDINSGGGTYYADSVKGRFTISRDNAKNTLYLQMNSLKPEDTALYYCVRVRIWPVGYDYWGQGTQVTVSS VL: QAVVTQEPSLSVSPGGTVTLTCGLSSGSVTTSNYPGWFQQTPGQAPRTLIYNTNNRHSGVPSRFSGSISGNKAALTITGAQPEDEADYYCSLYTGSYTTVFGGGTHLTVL ... 0
76G7 chimeric llama-human IgG1 mAb (antibody, V domains shown, llama VH on human IgG1 CH1-CH2-CH3, llama VL on human lambda CL) VH: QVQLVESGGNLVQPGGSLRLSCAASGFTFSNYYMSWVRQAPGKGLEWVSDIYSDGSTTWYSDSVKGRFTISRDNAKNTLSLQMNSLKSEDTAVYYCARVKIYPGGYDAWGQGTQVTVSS VL: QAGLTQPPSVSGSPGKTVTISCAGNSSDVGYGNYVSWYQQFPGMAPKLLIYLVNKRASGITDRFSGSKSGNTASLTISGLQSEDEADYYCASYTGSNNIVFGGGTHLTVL ... 0

Shift focus to the following entry.
Problem: Give the measured scatter score 0-4, HPAF-II, 0.111 nM of 71G12 chimeric llama-human IgG1 mAb (antibody, V domains shown, llama VH on human IgG1 CH1-CH2-CH3, llama VL on human kappa CL) VH: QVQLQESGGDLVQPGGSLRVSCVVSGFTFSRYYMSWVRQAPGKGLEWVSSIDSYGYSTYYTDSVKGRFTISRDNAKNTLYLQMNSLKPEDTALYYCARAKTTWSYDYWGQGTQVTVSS VL: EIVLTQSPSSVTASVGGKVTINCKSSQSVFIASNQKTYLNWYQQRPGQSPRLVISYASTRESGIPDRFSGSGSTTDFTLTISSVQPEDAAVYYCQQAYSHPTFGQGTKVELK .
Result: 0
